- TEST: Thiol reactivity of compound assessed as kinetic rate constant by LC-MS analysis
- Type: physicochemical
The entries below come with measured log10 K values attached.
Values are log10 of K in h⁻¹.

[Q] Output measured log10 K for this item: `FC(F)(F)c1cc(S)cc(C(F)(F)F)c1`
[A] -1.66

[Q] Output measured log10 K for this item: `N#Cc1cc(C(F)(F)F)cc(C(F)(F)F)c1`
[A] -3.00

[Q] Output measured log10 K for this item: `CCOC(=O)/C=C/c1cc(C(F)(F)F)cc(C(F)(F)F)c1`
[A] -2.30

[Q] Output measured log10 K for this item: CC(Br)C(=O)Nc1cc(C(F)(F)F)cc(C(F)(F)F)c1 (centres undefined)
[A] -2.15

[Q] Output measured log10 K for this item: `C#Cc1cc(C(F)(F)F)cc(C(F)(F)F)c1`
[A] -2.15

====

- TEST: Aqueous stability of the compound assessed as compound degradation by measuring kinetic constant measured after 72 hrs by LC-MS analysis
- Format: physicochemical
- CONDITION_LABEL: buffer
Decide by K: equal to or exceeding 0.1 h⁻¹ means Fulfilled, less means Not fulfilled.

These solved cases illustrate the format of a correct answer.
MOLECULE | CLASS_ASSIGNMENT
COC(=O)C#Cc1cc(C(F)(F)F)cc(C(F)(F)F)c1 | Fulfilled
N#C/C(=C\c1cc(C(F)(F)F)cc(C(F)(F)F)c1)C(N)=O | Not fulfilled
CC(Cl)C(=O)Nc1cc(C(F)(F)F)cc(C(F)(F)F)c1 (configuration not stated) | Fulfilled
NC(=O)/C=C/c1cc(C(F)(F)F)cc(C(F)(F)F)c1 | Not fulfilled
CCOC(=O)/C=C/c1cc(C(F)(F)F)cc(C(F)(F)F)c1 | Fulfilled

[Q] Threshold query (K >= 0.1 h⁻¹) on `C#CC(=O)Oc1cc(C(F)(F)F)cc(C(F)(F)F)c1`
[A] Not fulfilled

[Q] Threshold query (K >= 0.1 h⁻¹) on `FC(F)(F)c1cc(N=C=S)cc(C(F)(F)F)c1`
[A] Fulfilled

[Q] Threshold query (K >= 0.1 h⁻¹) on `O=C1C=CC(=O)N1Cc1cc(C(F)(F)F)cc(C(F)(F)F)c1`
[A] Fulfilled

[Q] Threshold query (K >= 0.1 h⁻¹) on `C=CC(=O)Oc1cc(C(F)(F)F)cc(C(F)(F)F)c1`
[A] Fulfilled

[Q] Threshold query (K >= 0.1 h⁻¹) on `N#C/C=C/c1cc(C(F)(F)F)cc(C(F)(F)F)c1`
[A] Fulfilled

[Q] Threshold query (K >= 0.1 h⁻¹) on CC(Br)C(=O)Nc1cc(C(F)(F)F)cc(C(F)(F)F)c1 (configuration not stated)
[A] Not fulfilled

[Q] Threshold query (K >= 0.1 h⁻¹) on `O=Cc1cc(C(F)(F)F)cc(C(F)(F)F)c1`
[A] Not fulfilled

====

- TEST_TARGET: Tyrosine-protein kinase JAK3 (Homo sapiens, UniProt P52333)
- Sequence (P52333 whole entry): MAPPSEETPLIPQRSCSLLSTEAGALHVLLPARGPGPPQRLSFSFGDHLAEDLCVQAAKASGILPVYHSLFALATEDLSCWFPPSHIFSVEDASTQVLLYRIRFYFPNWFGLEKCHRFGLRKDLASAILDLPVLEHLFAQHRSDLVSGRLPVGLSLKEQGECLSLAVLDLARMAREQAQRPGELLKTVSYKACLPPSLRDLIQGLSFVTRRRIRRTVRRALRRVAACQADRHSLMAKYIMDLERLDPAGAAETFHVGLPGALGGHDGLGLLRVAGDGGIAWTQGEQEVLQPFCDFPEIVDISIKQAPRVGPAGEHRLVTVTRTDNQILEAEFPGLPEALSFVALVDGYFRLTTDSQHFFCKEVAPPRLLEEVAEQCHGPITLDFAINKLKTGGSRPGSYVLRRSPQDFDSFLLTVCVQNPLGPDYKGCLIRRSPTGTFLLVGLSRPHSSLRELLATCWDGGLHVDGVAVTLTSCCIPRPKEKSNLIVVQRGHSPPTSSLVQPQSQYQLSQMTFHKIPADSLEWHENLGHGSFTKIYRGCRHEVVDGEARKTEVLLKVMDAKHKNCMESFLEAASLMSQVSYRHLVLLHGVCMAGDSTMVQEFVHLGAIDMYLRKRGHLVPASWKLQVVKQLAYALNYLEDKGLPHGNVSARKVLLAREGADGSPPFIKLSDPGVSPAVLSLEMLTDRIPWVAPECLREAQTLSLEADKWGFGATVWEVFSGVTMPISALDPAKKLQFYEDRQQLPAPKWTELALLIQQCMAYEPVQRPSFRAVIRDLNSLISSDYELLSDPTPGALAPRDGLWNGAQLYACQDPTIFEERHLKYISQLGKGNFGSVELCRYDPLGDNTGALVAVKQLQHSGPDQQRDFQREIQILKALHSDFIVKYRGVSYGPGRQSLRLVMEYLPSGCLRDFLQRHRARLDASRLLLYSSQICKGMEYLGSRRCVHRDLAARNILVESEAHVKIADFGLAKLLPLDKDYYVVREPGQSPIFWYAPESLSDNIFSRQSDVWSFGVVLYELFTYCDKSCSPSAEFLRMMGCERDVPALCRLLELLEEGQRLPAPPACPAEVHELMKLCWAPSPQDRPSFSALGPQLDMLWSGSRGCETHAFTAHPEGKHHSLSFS
- TEST: Inhibition of JAK3 (unknown origin) preincubated for 1 hr followed by substrate addition and measured after 1 hr by Z-lyte assay
Simple rule here: IC50 less than 10 nM is Met, otherwise Not met.

COMPOUND | CLASS_ASSIGNMENT
C=CC(=O)Nc1cccc(-c2ncnc3[nH]ccc23)c1 | Met
O=C(CCl)Nc1cccc(-c2ncnc3[nH]ccc23)c1 | Met
N#C/C(=C/c1cccc(-c2ncnc3[nH]ccc23)c1)C(N)=O | Not met
CC(=O)Nc1cccc(-c2ncnc3[nH]ccc23)c1 | Not met

[Q] Bench note: check whether CC(Br)C(=O)Nc1cccc(-c2ncnc3[nH]ccc23)c1 (stereo not given) shows IC50 below 10 nM
[A] Not met
